Test system: U251 CNS
Procedure Details: NCI-60 one-dose screen, 48 h
Test Settings: 10 µM unless noted
About 83,000 compounds went through this panel and 20% of them were active in at least one assay; those are over-represented in the sample as a whole. Activity calls are given as the source filed them. The calls were made as follows: active = growth percent below 10; inactive = the rest.
Reply using exactly one outcome from active, inactive

Query: // param item: C#CC[C@@H]1C[C@]2(C)[C@H]3CC[C@@H]4[C@H]5C(C(=C)C)CC[C@]5(C(=O)NCCCN5CCN(CCCN)CC5)CC[C@@]4(C)[C@]3(C)CC[C@H]2C(C)(C)[C@H]1OC(C)=O (some centres undefined) ; yields the recorded call
Response: active

Query: // param item: COc1cc(C2CC(c3ccc(Cl)cc3)=NN2C=O)ccc1OS(=O)(=O)c1ccc(C)cc1 (centres undefined) ; yields the recorded call
Response: inactive

Query: // param item: COc1cc(CN2CCO[C@H](COc3cccc(F)c3)C2)ccc1Cl ; yields the recorded call
Response: inactive

Query: // param item: Cc1nn(-c2ccc(Cl)cc2)c(=O)n1CCN1CCOCC1 ; yields the recorded call
Response: inactive

Query: // param item: CCCCCCCCCCCCCC[N+](C)(C)CCCCCCCCCCCCCC ; yields the recorded call
Response: inactive

Query: // param item: C=CCn1c(SCC(=O)Nc2ccc(/C(C)=N\O)cc2)nnc1-c1cc(-c2ccccc2)nc2ccccc12 ; yields the recorded call
Response: inactive

Query: // param item: COCCn1c(Nc2ccc(C(=O)NO)cc2)nc2ccccc21 ; yields the recorded call
Response: inactive

Query: // param item: Cc1cc2nc3c(=O)[nH]c(=O)nc-3n(CC=O)c2cc1C ; yields the recorded call
Response: inactive

Query: // param item: CC(=O)OC1Oc2ccccc2-c2oc3nc(=N)n(C)c-3cc21 (centres undefined) ; yields the recorded call
Response: inactive

Query: // param item: Cc1cc(Cl)c2ccc(N(C)C)cc2n1 ; yields the recorded call
Response: inactive

Query: // param item: O=C1OC(c2ccc(-c3ccccc3)cc2)=C/C1=C/c1c(Cl)cccc1Cl ; yields the recorded call
Response: inactive

Query: // param item: COc1ccc(/C=C2\Cc3c(Br)cccc3C2=O)c(OC)c1 ; yields the recorded call
Response: inactive

Query: // param item: COc1ccc([C@@H]2[C@@H](Oc3ccccc3)C(=O)N2c2cc(OC)c(OC)c(OC)c2)cc1F ; yields the recorded call
Response: active

Query: // param item: C/C=C(\C)C(C(=O)NC1CCCCC1)N(C(=O)C1CCc2cc(F)ccc2O1)c1ccc([N+](=O)[O-])cc1 (centres undefined) ; yields the recorded call
Response: inactive

Query: // param item: Nc1cc2nc3ccccc3oc-2cc1=O ; yields the recorded call
Response: inactive

Query: // param item: COc1ccc(NC(=O)c2ccc(C(F)(F)F)nc2Nc2ccc(Cl)cc2C)cc1Cl ; yields the recorded call
Response: inactive

Query: // param item: O=C(NC1CC1)c1ccc(-c2nc3ccc4[nH]ncc4c3c3c2CCCC3)cc1 ; yields the recorded call
Response: inactive

Query: // param item: CCCCOc1ncnc2nc[nH]c12 ; yields the recorded call
Response: inactive

Query: // param item: CCOC(CN1CCN(CC(C)C(=O)c2ccccc2)CC1)c1ccccc1 (centres undefined) ; yields the recorded call
Response: inactive

Query: // param item: O=C(O)C1[S][Sb]([CH](C(=O)O)[CH](C(=O)O)[Sb]2[S]C(C(=O)O)C(C(=O)O)[S]2)[S]C1C(=O)O (centres undefined) ; yields the recorded call
Response: inactive

Query: // param item: COc1ccc(-c2oc(=O)ccc2-c2cc(OC)c(OC)c(OC)c2)cc1F ; yields the recorded call
Response: inactive

Query: // param item: COc1ccc(-c2nc(-c3ccccc3OCc3ccccc3OC)nc(C)c2C(C)=O)cc1 ; yields the recorded call
Response: inactive

Query: // param item: Nc1nc2c(c3ncccc13)C(c1ccccc1)Cc1ncccc1-2 (centres undefined) ; yields the recorded call
Response: inactive

Query: // param item: CC(=O)O[C@H]1[C@H](CC#CC#CC[C@@H]2C[C@]3(C)[C@H]4CC=C5[C@H]6[C@@H](C)[C@H](C)CC[C@]6(C(=O)NCCN(CCN)CCN)CC[C@@]5(C)[C@]4(C)CC[C@H]3C(C)(C)[C@H]2OC(C)=O)C[C@]2(C)[C@H]3CC=C4[C@H]5[C@@H](C)[C@H](C)CC[C@]5(C(=O)NCCN(CCN)CCN)CC[C@@]4(C)[C@]3(C)CC[C@H]2C1(C)C ; yields the recorded call
Response: inactive

====

Tested on: NCI-H226 lung
Procedure Details: NCI-60 one-dose screen, 48 h (100 = growth as untreated, 0 = no growth, -100 = all killed)
Test Settings: 10 µM unless noted
About 83,000 compounds went through this panel and 20% of them were active in at least one assay; those are over-represented in the sample as a whole. Activity calls are given as the source filed them. The calls were made as follows: active = growth percent below 10; inactive = the rest.
Reported Property: growth

Query: Recorded growth for O=C(Nc1ccc2[nH]c3ccccc3c2c1)c1ccccc1Cl , please?
Response: 81.1% (inactive)

Query: Recorded growth for Oc1ccc(Cl)cc1-c1cc(-c2ccccc2Cl)[nH]n1 , please?
Response: 81.8% (inactive)

Query: Recorded growth for CCCCNCCC(O)c1cc2ccc(C(F)(F)F)cc2c2cc(C(F)(F)F)ccc12 (centres undefined) , please?
Response: -70.7% (active)

Query: Recorded growth for COc1ccc(C(=O)C(C#N)c2cc(OC)c(OC)c(OC)c2)cc1 (centres undefined) , please?
Response: 99.4% (inactive)

Query: Recorded growth for C#CC[C@@H]1C[C@]2(C)[C@H]3CC=C4[C@H]5[C@@H](C)[C@H](C)CC[C@]5(C(=O)NCCCCCCCCN)CC[C@@]4(C)[C@]3(C)CC[C@H]2C(C)(C)[C@H]1OC(C)=O , please?
Response: 94.6% (inactive)

Query: Recorded growth for Cc1cc(NC(=O)C2c3ccccc3C(=O)N(CC(C)C)C2c2cccs2)no1 (centres undefined) , please?
Response: 103% (inactive)

Query: Recorded growth for N#Cc1c(N)c(C(=O)c2ccc3c(c2)OCCO3)n2c1CCCC2 , please?
Response: 81.7% (inactive)

Query: Recorded growth for Cc1ccc(N2C3c4ccccc4N(S(=O)(=O)c4ccc(C)cc4)C2c2ccccc2N3S(=O)(=O)c2ccc(C)cc2)cc1 , please?
Response: 94.3% (inactive)

Query: Recorded growth for O=Cc1ccc2nc(C(Cl)(Cl)Cl)ccc2c1 , please?
Response: 97% (inactive)

====

Test system: HT29 colon
Procedure Details: NCI-60 one-dose screen, 48 h (100 = growth as untreated, 0 = no growth, -100 = all killed)
Test Settings: 10 µM unless noted
Compounds without any hit were thinned out: in the full panel of roughly 83,000, 20% have a hit. The source made the active and inactive calls. The calls were made as follows: active = growth percent below 10; inactive = the rest.
Reported Property: growth

Query: Request - read-out growth | tested on HT29 colon | molecule CC(C)NC(=O)OCC#CCOC(=O)NC(C)C
Response: 104% (inactive)

Query: Request - read-out growth | tested on HT29 colon | molecule COc1cc2c(cc1OC)C(=O)OC2
Response: 109% (inactive)

Query: Request - read-out growth | tested on HT29 colon | molecule C=C1NC(=O)C(C(C)CC)NC(=O)C2CSCC(NC(=O)CCC(=O)O)C(=O)NC(Cc3ccccc3)C(=O)NC(C)C(=O)NC(CC(C)CC)C(=O)NC(C(=O)NC(Cc3ccccc3)C(=O)N3CCCC3C(=O)N2)C(C)OC(=O)C(CO)NC(=O)C(C(O)COC)N(C)C(=O)C(C(C)C)NC(=O)C(CC(C)CC)NC1=O (stereo not drawn)
Response: 4.74% [6 µM] (active)

Query: Request - read-out growth | tested on HT29 colon | molecule Cc1cc(C)cc(NC(=O)Cn2nncc2CN2C(=O)CSC2=O)c1
Response: 108% (inactive)

Query: Request - read-out growth | tested on HT29 colon | molecule COc1cc2c(cc1C)NC(=O)/C2=C\c1c[nH]c2ccccc12
Response: 35.4% (inactive)

Query: Request - read-out growth | tested on HT29 colon | molecule CS(=O)(=O)Nc1cc(-c2cc3ncc(C#N)c(Nc4ccc(Oc5ccccc5)c(Cl)c4)c3s2)cnc1Cl
Response: 57.6% (inactive)

Query: Request - read-out growth | tested on HT29 colon | molecule O=C(NNC(=S)Nc1ccccc1)c1ccc(Nc2ncnc3c2cnn3-c2cccc(Br)c2)cc1
Response: 105% (inactive)

Query: Request - read-out growth | tested on HT29 colon | molecule Cc1nc([C@H]2CC[C@H]3[C@@H]4CCC5=CC(=O)CC[C@]5(C)[C@H]4CC[C@]23C)cs1
Response: 62.2% (inactive)

Data provenance: PubChem BioAssay (NCI)
